- Procedure Details: Determination of compound sulfonamide group pKa (UV-Vis spectra at different pH)
- Format: physicochemical
- Run Conditions: value marked *: average of measured compounds, used for calculation; read-out: Sulfonamide pKa (not determined, average of all measured compounds)
Observed Property: pKa
Give your answer as a number; write no unit.

Q: So what's the measured pKa for this one? CCOC(=O)c1sc(N(CCC(=O)NN)c2ccc(S(N)(=O)=O)cc2)nc1C
A: 10.1

----------
- Tested On: CAVII (Homo sapiens)
- Construct: made in house; host or cells: E. coli
- Sequence (P43166 whole entry): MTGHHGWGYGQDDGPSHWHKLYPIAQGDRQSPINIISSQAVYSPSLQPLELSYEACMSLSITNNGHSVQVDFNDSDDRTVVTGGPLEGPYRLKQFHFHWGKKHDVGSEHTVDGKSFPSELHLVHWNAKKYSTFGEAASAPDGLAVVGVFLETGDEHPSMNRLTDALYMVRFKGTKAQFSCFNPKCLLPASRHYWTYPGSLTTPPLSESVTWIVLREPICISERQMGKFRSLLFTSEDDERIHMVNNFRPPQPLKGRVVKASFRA
- Procedure Details: Fluorescent thermal shift assay (FTSA), CAVII
- Format: binding
- Run Conditions: FTSA, pH 7.0, 37 °C; read-out: Observed Dissociation Constant (Kd_obs), CAVII
Observed Property: Kd (nM)
Just the number in nM, nothing appended.

| Compound | Numeric Value |
| --- | --- |
| NS(=O)(=O)c1ccc(NCC(CC(=O)NN=Cc2ccc(C(=O)O)cc2)C(=O)NN=Cc2ccc(C(=O)O)cc2)c(Cl)c1 (stereo not drawn) [Compound 18b] | 330 |
| NS(=O)(=O)c1ccc(NCC(Cc2n[nH]c(=S)n2-c2ccccc2)c2n[nH]c(=S)n2-c2ccccc2)c(Cl)c1 (stereo not drawn) [Compound 25b] | 170 |
| COC(=O)CCN(c1ccc(S(N)(=O)=O)cc1)c1nc(C)cs1 | 77 |
| Cc1ccc(C)n1NC(=O)CC(CNc1ccc(S(N)(=O)=O)cc1Cl)C(=O)Nn1c(C)ccc1C (stereo not drawn) [Compound 19b] | 200 |
| CCOC(=O)c1sc(N(CCC(=O)NN)c2ccc(S(N)(=O)=O)cc2)nc1C | 1100 |
| Cc1csc(N(CCC(=O)NN=Cc2ccccc2)c2ccc(S(N)(=O)=O)cc2)n1 | 100000 |
| NS(=O)(=O)c1ccc(NCC(CC(=O)NN=Cc2ccc(C(=O)O)cc2)C(=O)NN=Cc2ccc(C(=O)O)cc2)cc1 (stereo not drawn) [Compound 18a] | 6700 |
| CNC(=S)NNC(=O)CC(CNc1ccc(S(N)(=O)=O)cc1Cl)C(=O)NNC(=S)NC (stereo not drawn) [Compound 22b] | 670 |

Q: Query: Kd; subject: CNC(=S)NNC(=O)CC(CNc1ccc(S(N)(=O)=O)cc1)C(=O)NNC(=S)NC (stereo not drawn) [Compound 22a]
A: 10000

Q: Which Kd value is on record for CCOC(=O)c1sc(N(CCC(=O)O)c2ccc(S(N)(=O)=O)cc2)nc1C ?
A: 1700

----------
- Tested On: CAXIII (Homo sapiens, UniProt Q8N1Q1);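 also: recombinant human CAXIII melting temperature tracked by ANS fluorescence in thermal shift assay, Tm fitted against ligand concentration, intrinsic value corrects Kd for deprotonated sulfonamide and Zn-bound water fractions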
- Sequence (Q8N1Q1 whole entry): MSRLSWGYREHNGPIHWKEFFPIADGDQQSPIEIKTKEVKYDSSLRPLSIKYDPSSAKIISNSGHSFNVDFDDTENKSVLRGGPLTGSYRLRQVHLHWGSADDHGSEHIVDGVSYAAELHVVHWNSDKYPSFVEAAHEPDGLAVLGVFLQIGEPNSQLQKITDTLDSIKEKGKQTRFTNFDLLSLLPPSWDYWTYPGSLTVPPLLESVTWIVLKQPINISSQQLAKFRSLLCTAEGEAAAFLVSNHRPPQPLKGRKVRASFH
- Procedure Details: biochemical
- Run Conditions: Observed Dissociation Constant (Kd_obs), FTSA, pH 7.0, 37 °C
Decision: Kd beneath 8 µM gives Met; Kd meeting or exceeding 8 µM gives Not met.

| Molecule | Tested On | Discrete Label |
| --- | --- | --- |
| NS(=O)(=O)c1ccc(NCC(CC(=O)NN=Cc2ccc(Cl)cc2)C(=O)NN=Cc2ccc(Cl)cc2)c(Cl)c1 (stereo not drawn) [Compound 12b] | CAXIII (Homo sapiens, UniProt Q8N1Q1) | Met |
| CCC(C)=NN1C(=O)CC(CNc2ccc(S(N)(=O)=O)cc2Cl)C1=O (stereo not drawn) | CAXIII (Homo sapiens, UniProt Q8N1Q1) | Met |
| NS(=O)(=O)c1ccc(NCC(CC(=O)NN=Cc2ccc([N+](=O)[O-])cc2)C(=O)NN=Cc2ccc([N+](=O)[O-])cc2)cc1 (stereo not drawn) [Compound 17a] | CAXIII (Homo sapiens, UniProt Q8N1Q1) | Not met |

Q: Is Kd strictly under 8 µM for the entry NNC(=O)CC(CNc1ccc(S(N)(=O)=O)cc1Cl)C(=O)NN (stereo not drawn) ?
A: Met

Q: Given the entry CNC(=S)NNC(=O)CC(CNc1ccc(S(N)(=O)=O)cc1)C(=O)NNC(=S)NC (stereo not drawn) [Compound 22a] , would its reported Kd be below 8 µM?
A: Not met

Q: I wonder whether NS(=O)(=O)c1ccc(NCC(CC(=O)NN=Cc2ccccc2O)C(=O)NN=Cc2ccccc2O)c(Cl)c1 (stereo not drawn) has Kd below 8 µM. Can you tell?
A: Met

Q: Determine whether this molecule shows Kd lower than 8 µM (ties excluded): NS(=O)(=O)c1ccc(NCC(CC(=O)NN=Cc2cccc(O)c2)C(=O)NN=Cc2cccc(O)c2)c(Cl)c1 (stereo not drawn)
A: Met

Q: Decide: Kd of NS(=O)(=O)c1ccc(NCC(CC(=O)NN=Cc2ccc(C(=O)O)cc2)C(=O)NN=Cc2ccc(C(=O)O)cc2)cc1 (stereo not drawn) [Compound 18a] strictly below 8 µM?
A: Not met

Q: # check: Kd < 8 µM for NS(=O)(=O)c1ccc(NCC(CC(=O)NN=Cc2ccc(F)cc2)C(=O)NN=Cc2ccc(F)cc2)cc1 (stereo not drawn) [Compound 13a]
A: Not met
